Test system: HBLAK
Test: MTT viability assay (CC50)
Type: cell-based, human
Settings: 72 h of incubation
// reported CC50 per item

{"columns": ["Compound", "Unit Info", "Qualifier Sign", "CC50"],
 "data": [
  ["O=C(NCC1(c2nc(-c3ccccc3)cs2)CCOCC1)c1cccc(-c2noc(C(F)(F)F)n2)c1", "µM", "=", 48.7],
  ["Cc1cc(C)cc(C(=O)NOCCCCCC(=O)NO)c1 [19i]", "µM", ">", 5]
]}

###

Target: HDAC3 (Homo sapiens)
Sequence (O15379 whole entry): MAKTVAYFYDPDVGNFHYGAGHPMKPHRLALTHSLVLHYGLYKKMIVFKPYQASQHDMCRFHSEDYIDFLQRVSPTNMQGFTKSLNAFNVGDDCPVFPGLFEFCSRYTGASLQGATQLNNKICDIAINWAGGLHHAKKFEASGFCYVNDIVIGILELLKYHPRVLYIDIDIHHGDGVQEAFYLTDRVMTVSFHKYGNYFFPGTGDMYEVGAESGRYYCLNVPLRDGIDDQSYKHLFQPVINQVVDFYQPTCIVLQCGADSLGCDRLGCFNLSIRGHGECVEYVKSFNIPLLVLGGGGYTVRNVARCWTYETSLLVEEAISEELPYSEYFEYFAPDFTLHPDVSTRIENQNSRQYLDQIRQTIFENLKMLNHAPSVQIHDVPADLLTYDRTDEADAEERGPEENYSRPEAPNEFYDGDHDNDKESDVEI
Sequence (Q9Y618 395-489 partner limits assumed): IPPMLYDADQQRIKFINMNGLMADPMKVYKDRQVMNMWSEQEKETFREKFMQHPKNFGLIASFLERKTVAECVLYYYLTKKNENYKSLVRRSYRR
pIC50: −log10 of the molar value.
Attribute Measured: pIC50

{"columns": ["Molecule", "Numeric Value"],
 "data": [
  ["Cc1cc(C)cc(C(=O)NOCCCCCC(=O)NO)c1 [19i]", 6.63]
]}

###

System: VM-CUB1
Experiment: MTT viability assay (CC50)
Format: cell-based, human
Details: VMCub1, MTT, 24 h
Method: Further experiments were performed in VM-CUB1 and UM-UC-3 cells overexpressing HDAC4 (see below). Standard UCCs were obtained from the DSMZ (Braunschweig, Germany) and Dr. H.B. Grossmann HB (Houston, USA). For comparison, we investigated the spontaneously immortalized normal human bladder cell line HBLAK (provided by CELLnTEC, Bern, Switzerland) and the immortalized human embryonic kidney cell line HEK-293 (provided by Dr. V. Kolb-Bachofen, Duesseldorf, Germany). […]
Attribute Measured: CC50 (µM)

{"columns": ["Molecule", "Numeric Value"],
 "data": [
  ["O=C(NCC1(c2nc(-c3ccccc3)cs2)CCOCC1)c1cccc(-c2noc(C(F)(F)F)n2)c1 [TMP269]", 115]
]}

###

Tested on: VM-CUB1
Experiment: MTT viability assay (CC50)
Assay type: cell-based, human
Conditions: VM-CUB1, MTT, 72 h of incubation

{"columns": ["Compound", "Unit Info", "CC50"],
 "data": [
  ["O=C(NCC1(c2nc(-c3ccccc3)cs2)CCOCC1)c1cccc(-c2noc(C(F)(F)F)n2)c1", "µM", 45.9],
  ["Cc1cc(C)cc(C(=O)NOCCCCCC(=O)NO)c1 [19i]", "µM", 0.97]
]}

###

Test system: UM-UC-3-HDAC4
Assay: MTT viability assay (CC50)
Type: cell-based, human
Details: UM-UC-3-HDAC4 (HDAC4-overexpressing), 72 h

{"columns": ["Compound", "Measured Target", "CC50, nM"],
 "data": [
  ["Cc1cc(C)cc(C(=O)NOCCCCCC(=O)NO)c1 [19i]", "UM-UC-3-HDAC4", 740]
]}

###

Test system: 639-V
Assay: High-content analysis-based fluorescent live/dead assay
Assay type: cell-based, human
Conditions: HCA, 72 h

{"columns": ["Smi", "Measured Target", "CC50"],
 "data": [
  ["O=C(NCC1(c2nc(-c3ccccc3)cs2)CCOCC1)c1cccc(-c2noc(C(F)(F)F)n2)c1", "639-V", "16.5 µM"]
]}

###

Target: HDAC1 (Homo sapiens)
Sequence (Q13547 whole entry): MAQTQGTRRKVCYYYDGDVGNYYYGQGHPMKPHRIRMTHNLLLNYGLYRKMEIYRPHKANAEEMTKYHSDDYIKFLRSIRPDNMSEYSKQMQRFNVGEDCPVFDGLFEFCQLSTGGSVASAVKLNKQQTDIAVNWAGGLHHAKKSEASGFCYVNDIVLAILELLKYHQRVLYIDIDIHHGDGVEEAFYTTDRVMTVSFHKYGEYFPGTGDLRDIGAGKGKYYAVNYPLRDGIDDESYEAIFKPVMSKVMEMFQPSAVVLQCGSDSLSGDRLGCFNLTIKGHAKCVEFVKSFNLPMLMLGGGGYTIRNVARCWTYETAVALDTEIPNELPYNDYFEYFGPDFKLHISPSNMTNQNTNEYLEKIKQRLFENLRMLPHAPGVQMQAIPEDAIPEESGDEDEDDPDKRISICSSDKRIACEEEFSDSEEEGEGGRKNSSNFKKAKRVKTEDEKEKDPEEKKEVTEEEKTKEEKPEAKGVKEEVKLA
Assay: In vitro fluorescence-based HDAC inhibition assay (Reaction Biology)
Conditions: read-out: IC50 HDAC1; experiment performed once
Attribute Measured: IC50

{"columns": ["Molecule", "Result"],
 "data": [
  ["Cc1cc(C)cc(C(=O)NOCCCCCC(=O)NO)c1 [19i]", "315 nM"]
]}
